# test-method-notes: A CellTox Green Cytotoxicity Assay to monitor cytotoxicity in HEK293 cells - 40 hour (AID 1224871); also: nearly all actives have a fitted effect of over 45% in size
# details: CellTox Green fluorescence; series mostly up to 76.8 µM
# From the text: National Center for Advancing Translational Sciences [NCATS] NIH Chemical Genomics Center [NCGC] U.S. Environmental Protection Agency [EPA] National Institutes of Environmental Health Sciences [NIEHS] National Toxicology Program [NTP] Cell-based models are critical for drug discovery. […] Viable cells produce no appreciable increases in fluorescence. Therefore, the fluorescence signal produced by the binding interaction with dead cell DNA is proportional to cytotoxicity. […]
Records with an inconclusive call do not appear. Activity calls are given as the source filed them. Calls follow the shape of the dose curve; as a rule, active = well fitted activation curve with a large enough effect in the repeat runs; inconclusive = weak or mixed curves; inactive = flat fitted curve, though single readings scatter.
endpoint-name: outcome

CSc1ccc(Cl)cc1 : inactive
CCO[Si](CCCN)(OCC)OCC : inactive
C=C(C)CNCC : inactive
C=CCCCCCCCCC(=O)O : inactive
CCc1ccccc1CC : inactive

Request the reported outcome associated with `O=C1CCCC1`
inactive

What does the record list as outcome for `CCCCCCCO` ?
inactive

Field request: outcome | item: `CCOC(=O)c1ccc(N)cc1`
inactive

Given the entry `CC(=O)Oc1ccc(C)cc1` , report its measured outcome.
inactive

Find the recorded outcome belonging to `NCCN1CCNCC1` and report it.
inactive

GET /values?readout=outcome&item= `O=C(O)c1ccc(C(=O)O)c(C(=O)O)c1`
inactive

What value of outcome has been recorded for this entry: `CC1(C)OC[C@@H]2O[C@@]3(C(=O)O)OC(C)(C)O[C@H]3[C@@H]2O1`
inactive

Please report the recorded outcome for `CC(=O)CCC=C(C)C` .
inactive

Give the measured outcome of CC(C)CC(C)O (stereo unspecified) .
inactive

What value of outcome has been reported for the following compound? `O=C(O)c1cc2ccccc2cc1O`
inactive

Using the record for `CN(C)c1ccc(Cc2ccc(N(C)C)cc2)cc1` , report its outcome.
inactive
